system: CP269; assay: qHTS profiling for inhibitors of Plasmodium falciparum proliferation (AID 504749); further: nearly all actives have a fitted effect of over 60% in size; conditions: P. falciparum in erythrocytes, SYBR Green DNA, 72 h; series mostly up to 28.7 µM
Inconclusive results are not listed. Activity calls are given as the source filed them. The call rests on the fitted dose curve; in most records, active means well fitted inhibition curve with a large enough effect; inconclusive means small, poorly fitted or top-dose-only effect; inactive means flat fitted curve, though single readings scatter.
Respond with a class label; see YES for active, NO for inactive

Reference set, count: 8
CC(C)[C@H](N)C(=O)OCC(CO)OCn1cnc2c(=O)[nH]c(N)nc21 (some centres undefined) | NO
CC(=O)Nc1ccc(OC(=O)c2ccccc2O)cc1 | NO
CN(C)CCCSc1ccccc1NC(=O)/C=C/c1ccccc1 | NO
[O]=[Bi][O][Bi]=[O] | NO
O=C1c2ccccc2CN2C(=O)c3ccccc3CN12 | NO
CCOc1ccc(S(=O)(=O)O)c2cccnc12 | NO
CC(C)CCCCCCc1ccc(O)cc1 | NO
Cc1ncc(C[n+]2csc(CCO)c2C)c(N)n1 | NO

### Prompt Tell me the assay call for S=C=Nc1ccc(N=C=S)cc1 please.
### Response NO

### Prompt For O=C(O)COc1ccc(CCNS(=O)(=O)c2ccccc2)s1 then?
### Response NO

### Prompt For O=C(O)c1ccc(NC(=O)[C@H](Cc2ccc(O)cc2)NC(=O)c2ccccc2)cc1 then?
### Response NO

### Prompt For OCC1(CO)COC(C(Cl)(Cl)Cl)OC1 then?
### Response NO

### Prompt For O=C(OCc1ccccc1)c1ccc(O)cc1 then?
### Response NO

### Prompt For NCCO/C=C/[C@H](N)C(=O)O then?
### Response NO

### Prompt For COc1cc(NCCCC(C)N)c2ncccc2c1 (centres undefined) then?
### Response YES

### Prompt For CC/C(=C(/CC)c1ccc(OP(=O)(O)O)cc1)c1ccc(OP(=O)(O)O)cc1 then?
### Response NO

### Prompt For C=CC(=O)O then?
### Response NO

### Prompt For O=[N+]([O-])c1c(Cl)cccc1-c1c[nH]cc1Cl then?
### Response NO

### Prompt For [O-][N+](=Nc1ccccc1)c1ccccc1 then?
### Response NO

### Prompt For C[Si](C)(C)O[Si](C)(C)C then?
### Response NO

### Prompt For CSc1nc2cc(Oc3cccc(Cl)c3Cl)c(Cl)cc2[nH]1 then?
### Response YES

### Prompt For CCCCC then?
### Response NO

---

test system: CP256; test: qHTS profiling for inhibitors of Plasmodium falciparum proliferation (AID 504749); further: nearly all actives have a fitted effect of over 60% in size; conditions: P. falciparum in erythrocytes, SYBR Green DNA, 72 h; series mostly up to 28.7 µM
Results filed as inconclusive are left out. Calls of active or inactive are those of the source. Calls follow the shape of the dose curve; as a rule, active = well fitted inhibition curve with a large enough effect; inconclusive = small, poorly fitted or top-dose-only effect; inactive = flat fitted curve, though single readings scatter.
Respond with a class label; see 1 (yes) (active), 0 (no) (inactive)

CC(C)(C)CC(C)(C)c1cc(Cc2cc(C(C)(C)CC(C)(C)C)cc(-n3nc4ccccc4n3)c2O)c(O)c(-n2nc3ccccc3n2)c1 | 0 (no)

### Prompt Tell me the assay call for FC(F)(F)COCC(F)(F)F please.
### Response 0 (no)

### Prompt For COc1ccc2c(c1)OC(C)(C)C(c1ccccc1)C2c1ccc(OCCN2CCCC2)cc1 (stereo unspecified) then?
### Response 1 (yes)

### Prompt For CSc1nc2cc(Oc3cccc(Cl)c3Cl)c(Cl)cc2[nH]1 then?
### Response 1 (yes)

### Prompt For CCN(CC)C(=S)S then?
### Response 0 (no)

### Prompt For Cc1ccccn1 then?
### Response 0 (no)

### Prompt For O=S(=O)(O)CCCS(=O)(=O)O then?
### Response 0 (no)

### Prompt For C[C@]12CCC(=O)C[C@@H]1CC[C@@H]1[C@@H]2CC[C@]2(C)C=CC[C@@H]12 then?
### Response 0 (no)

---

Quick reference: activity, negative = cell killing of the listed items.
Test: Drug repurposing screens with cells derived from glioblastoma tumor samples (AID 1345199); further: on the % scale 0 is the no-effect control and ±100 the full control effect; nearly all actives have a fitted effect of over 40% in size
Conditions: GBM patient neurospheres viability, ATP luminescence, 48 h; at 45.9 µM (top of the series); tumour line D
Description: CD133+ cells were isolated from GBM patient biopsies and cultured as neurospheres. Neurospheres from four patients were used to screen the NCATS pharmaceutical collection (NPC) library of approved drugs and bioactive compounds. […] The neurospheres were incubated with drugs for 48 hours in 1536-well format, then assayed with an ATP content cell viability assay. […]
Results filed as inconclusive are left out. Calls of active or inactive are those of the source. The call rests on the fitted dose curve; in most records, active means well fitted inhibition curve with a large enough effect; inconclusive means small, poorly fitted or top-dose-only effect; inactive means flat fitted curve, though single readings scatter.

O=C(O)[C@H]1C(=CCO)O[C@H]2CC(=O)N12 | -21.6% (inactive)

### Prompt Requested read-out: activity, negative = cell killing. Entry: CC/C=C\C/C=C\C/C=C\C/C=C\C/C=C\C/C=C\CCC(=O)O
### Response -12.5% (inactive)

### Prompt For CCCCCCCCCCCCCCCCCC[N+](C)(C)CCC[Si](OC)(OC)OC then?
### Response -4.63% (inactive)

---

system: PC26; test: qHTS profiling for inhibitors of Plasmodium falciparum proliferation (AID 504749); further: nearly all actives have a fitted effect of over 60% in size; settings: P. falciparum in erythrocytes, SYBR Green DNA, 72 h; series mostly up to 28.7 µM
Results filed as inconclusive are left out. Active and inactive are the calls of the source. The call rests on the fitted dose curve; in most records, active means well fitted inhibition curve with a large enough effect; inconclusive means small, poorly fitted or top-dose-only effect; inactive means flat fitted curve, though single readings scatter.
Respond with a class label; see Y for active, N for inactive

Reference set, count: 3
COC(=O)CC[C@H](N)C(=O)O | N
C[C@H](O)CN(C)C | N
O=C(O)c1ccc(NC(=O)[C@H](Cc2ccc(O)cc2)NC(=O)c2ccccc2)cc1 | N

### Prompt Tell me the assay call for Cc1c(C)c2c(c(C)c1OC(=O)CCC(=O)O)CC[C@@](C)(CCC[C@H](C)CCC[C@H](C)CCCC(C)C)O2 please.
### Response N

### Prompt For COC(=O)c1ccccc1O then?
### Response N

### Prompt For CC(=O)Nc1ccc(NC(=S)NC(=O)c2ccc(C(C)(C)C)cc2)cc1 then?
### Response N

### Prompt For CC(C)c1ncc([N+](=O)[O-])n1C then?
### Response N

### Prompt For Cc1cc(=O)c(C(=O)N[C@@H](C(=O)N[C@@H]2C(=O)N3C(C(=O)O)=C(CSc4nnnn4C)CS[C@H]23)c2ccc(O)cc2)c[nH]1 then?
### Response N

### Prompt For F[Si-2](F)(F)(F)(F)F then?
### Response N

### Prompt For COc1ccc2nc(NC(=O)Nc3ccccc3)sc2c1 then?
### Response N

### Prompt For CCOC(=O)c1c[nH]c2cc(OCC(C)C)c(OCC(C)C)cc2c1=O then?
### Response Y

### Prompt For c1ccc2c(c1)Sc1ccccc1N2CCN1CCCC1 then?
### Response Y

### Prompt For CC(=O)NCCCS(=O)(=O)O then?
### Response N

### Prompt For OCC(O)CO then?
### Response N

---

assay: S16 Schwann cell PMP22 intronic element firefly luciferase assay (AID 624032); settings: S16 rat Schwann cells, PMP22 element FLuc, 24 h; series mostly up to 57.5 µM; further: nearly all actives have a fitted effect of over 30% in size
Records with an inconclusive call do not appear. Activity calls are given as the source filed them. Calls come from the whole dose curve; as a rule, active = well fitted inhibition curve with a large enough effect; inconclusive = small, poorly fitted or top-dose-only effect; inactive = no such curve, though single readings can be large or run the other way.
Respond with a class label; see yes (1) (active), no (0) (inactive)

Reference set, count: 2
CC/C=C\C/C=C\C/C=C\CCCCCCCC(=O)O | no (0)
CN1C(=O)OC(C)(C)C1=O | no (0)

### Prompt Tell me the assay call for C[C@H](N)C(=O)N[C@@H](C)P(=O)(O)O please.
### Response no (0)

### Prompt For O=C(CCCN1CCC(C(=O)c2ccc(F)cc2)CC1)c1ccc(F)cc1 then?
### Response no (0)

### Prompt For COc1ccc(/C=C/C(=O)OCCC(C)C)cc1 then?
### Response no (0)

### Prompt For Cc1nc(NS(=O)(=O)c2ccc(N)cc2)nc(C)c1Br then?
### Response no (0)

### Prompt For CC1=C(/C=C/C(C)=C/C=C/C(C)=C/C(=O)Oc2c(C)c(C)c3c(c2C)CC[C@@](C)(CCC[C@H](C)CCC[C@H](C)CCCC(C)C)O3)C(C)(C)CCC1 then?
### Response yes (1)

### Prompt For Cc1cc(C)c(NC(=O)C[C@H](CC(=O)O)c2cccc3ccccc23)c(C(=O)N2CCC3(CCCC3)CC2)c1 then?
### Response no (0)

### Prompt For CN(C)C=Nc1c(I)cc(I)c(CCC(=O)O)c1I then?
### Response no (0)

### Prompt For CO/N=C(\C(=O)N[C@@H]1C(=O)N2C(C(=O)[O-])=C(C[n+]3cccc4c3CCC4)CS[C@H]12)c1csc(N)n1 then?
### Response no (0)

### Prompt For NC(=O)C1c2ccccc2CCc2ccccc21 then?
### Response no (0)

### Prompt For CC(O)CN(C)C (stereo unspecified) then?
### Response no (0)

### Prompt For Nc1ncnc2c1ncn2CCOCP(=O)(O)O then?
### Response no (0)

### Prompt For CCCCCCCCCCCCCCCCCC(=O)OC[C@@H](O)[C@H]1OC[C@H](O)[C@H]1O then?
### Response no (0)

### Prompt For O=C(O)CCC/C=C\C[C@@H]1[C@@H](/C=C/[C@@H](O)COc2cccc(C(F)(F)F)c2)[C@H](O)C[C@@H]1O then?
### Response no (0)

### Prompt For CCOC(=O)C1=C(COCCN)NC(C)=C(C(=O)OC)C1c1ccccc1Cl (stereo unspecified) then?
### Response no (0)

FYI, the data here is from PubChem BioAssay (NCATS).
